- protocol description: method code SF, from Hansch, C. & Leo, A. (1987). Log P database [Dataset]. Pomona College Medicinal Chemistry Project.
measure name: logP
A bare number is all that is needed in reply.

O=[N+]([O-])c1ccc2[nH]c(CCCCCc3nc4cc([N+](=O)[O-])ccc4[nH]3)nc2c1    1.97
C#CCCC(=O)N(C)c1ccc(S(=O)(=O)N(C)C)cc1    0.88
CN(C)/N=N/c1cccc(C(F)(F)F)c1    3.78
CNC(=O)Oc1ccccc1C1OCCO1    0.67

Q: // query logP value for entry `Cl/C=C/Cl`
Result: 2.09

Q: // query logP value for entry `S=c1cccc[nH]1`
Result: -0.13

Q: // query logP value for entry CCCCC1OC(=O)c2cc(Br)ccc21 (stereo not given)
Result: 4.24

Q: // query logP value for entry CCCCC1OC(=O)c2cc(NC(C)=O)ccc21 (stereo not given)
Result: 2.77
